These data points were gathered from patent US8791132B2.

# experimental_target: human recombinant adrenergic α2A receptor (Homo sapiens, UniProt P08913)
# Construct: expressed in transfected cells; host or cells: insect Sf9 cells
# Sequence (P08913 whole entry): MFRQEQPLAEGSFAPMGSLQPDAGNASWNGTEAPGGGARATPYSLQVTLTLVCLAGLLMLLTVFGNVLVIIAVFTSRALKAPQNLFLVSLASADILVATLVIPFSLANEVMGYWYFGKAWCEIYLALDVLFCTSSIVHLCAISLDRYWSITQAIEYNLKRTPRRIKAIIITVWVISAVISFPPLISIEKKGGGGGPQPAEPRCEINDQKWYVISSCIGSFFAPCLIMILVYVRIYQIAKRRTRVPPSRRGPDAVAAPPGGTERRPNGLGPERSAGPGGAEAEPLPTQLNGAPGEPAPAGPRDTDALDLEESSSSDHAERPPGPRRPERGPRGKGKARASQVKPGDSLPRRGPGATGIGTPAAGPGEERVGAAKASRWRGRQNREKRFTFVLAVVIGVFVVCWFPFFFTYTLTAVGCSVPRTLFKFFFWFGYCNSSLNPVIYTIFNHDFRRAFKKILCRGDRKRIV
# test_protocol: Radioligand binding, adrenergic α2A ([3H]MK-912)
# experimental_conditions: 0.1 μM compound; read-out: Percentage inhibition of ligand binding, Adrenergic α2A
readout_type: inhibition at 0.1 µM (%)

Worked cases, inhibition at 0.1 µM given:
[[record]]
molecule = "Cc1ccc2c(c1)c1c(n2C2=C(c3sccc3C)CCC2)CCN(C)C1"
observed_value = 81

[[record]]
molecule = "Cc1ccc2c(c1)c1c(n2CC(O)c2ccncc2)CCN(CCCO)C1 (stereo not drawn)"
observed_value = 15

[[record]]
molecule = "Cc1ccc(CCn2c3c(c4cc(C)ccc42)CN(C)CC3)nc1"
observed_value = 52

[[record]]
molecule = "C/C(=C/n1c2c(c3cc(C)ccc31)CN(C)CC2)c1ccc(F)nc1"
observed_value = 71

[[record]]
molecule = "Cc1ccc2c(c1)c1c(n2CC(C)c2ccc(C)nc2)CCN(C)C1 (single isomer, unassigned) [289a]"
observed_value = 60

[[record]]
molecule = "Cc1ccc(CCn2c3c(c4c(Cl)c(Cl)ccc42)CN(C)CC3)cn1"
observed_value = 63


I: COc1ccc(/C(C)=C/n2c3c(c4cc(C)ccc42)CN(C)CC3)cn1
II: CN1CCc2c(n(CC(O)c3cccnc3)c3ccc(Cl)cc23)C1 (stereo not drawn)
III: Cc1ccc2c(c1)c1c(n2CCc2ccc(C)nc2)C(c2ccccc2)N(C)CC1 (stereo not drawn)
Please order the records by their reported inhibition at 0.1 µM, lowest number first. # output: labels, in the requested order
II, I, III
